Target: T1, hAng2 (Homo sapiens, UniProt O15123)
T1 sequence (O15123 19-496): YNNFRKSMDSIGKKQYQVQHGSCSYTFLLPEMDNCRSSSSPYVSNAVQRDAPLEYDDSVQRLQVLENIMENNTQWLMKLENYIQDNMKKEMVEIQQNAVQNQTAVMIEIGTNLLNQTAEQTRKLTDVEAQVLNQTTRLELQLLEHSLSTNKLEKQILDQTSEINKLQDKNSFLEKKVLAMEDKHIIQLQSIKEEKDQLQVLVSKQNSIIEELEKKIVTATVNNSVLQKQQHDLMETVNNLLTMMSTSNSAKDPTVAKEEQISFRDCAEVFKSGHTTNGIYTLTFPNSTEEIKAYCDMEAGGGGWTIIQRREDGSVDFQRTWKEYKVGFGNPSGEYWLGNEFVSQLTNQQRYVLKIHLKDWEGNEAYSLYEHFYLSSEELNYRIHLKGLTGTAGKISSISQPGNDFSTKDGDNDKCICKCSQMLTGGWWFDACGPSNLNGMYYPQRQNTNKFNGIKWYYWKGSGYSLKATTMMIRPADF
Test: OCTET affinity of mouse monoclonal anti-Ang2 antibodies against hAng2
Details: hAng2 fixed on AR2G biosensor, 1:1 binding model
Experimental: The affinity of mouse monoclonal antibody against hAng2 was measured using OCTET® system (ForteBio, real-time, label-free bio-layer interferometry system for determination of affinity, kinetics, and concentration). Specifically, buffer and samples were measured in total 200 μl/well using Black 96-well plates (96 well F-type black plates, Greiner). The biosensor used for affinity measurements was hydrated for 10 min before measurement with AR2G tip (ForteBio OCTET®). […]
Kindly state Koff for each of the entries shown.
One number for each entry, in s⁻¹.

Below: 2 molecules and their reported Koff.
# MOLECULE, Koff / s⁻¹
data = [
    ("2C8: mouse monoclonal anti-Ang2 antibody; VH SEQ ID NO: 19, VL SEQ ID NO: 21; hybridoma KCLRF-BP-00417 (antibody, V domains shown, Heavy Chain Variable Region; Light Chain Variable Region, mouse monoclonal anti-Ang2 antibody; hybridoma KCLRF-BP-00417) VH: QVQLQQSGPQLVRPGASVKISCKASGYSFTSYWMHWVKQRPGQGLEWIGMIDPSDSETRLNQKFKDKASLTVDKSSSTAYMQLSSPTSGDSAVYYCARRFYYGSDWYFDVWGAGSTVTVSS VL: DIVMTQSHKFMSTSVGDRVSITCKASQDVGTAVAWYQQKPGQSPKLLIYWASTRHTGVPDRFTGSGSGTDFTLTISNVQSEDLADYFCQQYSSYPLTFGSGTKLEIK", "3.54e-06"),
    ("4E2: mouse monoclonal anti-Ang2 antibody; VH SEQ ID NO: 39, VL SEQ ID NO: 41 (antibody, V domains shown, Heavy Chain Variable Region; Light Chain Variable Region) VH: EVQLQQSGPELEKPGASVKISCKASGYSFTGYNMNWVKQSNGKSLEWIGNIDPYYGGTSYNQKFKGKATLTVDKSSSTAYMQLKSLTSEDSAVYYCVRYGNYVDYWGQGTTLTVSS VL: DIVMTQSHKFMSTSVGDRVSITCKASQDVSTAVAWYQQKPGQSPKLLIYWASTRHTGVPDRFTGSGSGTDYTLTISSVQAEDLALYYCQQHYNTPPTFGSGTKLEIK", 0.000134),
]

Now turn to the next molecule.
Kindly note the recorded Koff for 2F10: mouse monoclonal anti-Ang2 antibody; VH SEQ ID NO: 29, VL SEQ ID NO: 31 (antibody, V domains shown, Heavy Chain Variable Region; Light Chain Variable Region) VH: QVQLVESGGGLVKPGGSLKLSCAASGFTFSDYYMYWIRQTPEKRLEWVATINDGGSYTYYPDSVKGRFTISRDNAKNNLYLQMSSLKSEDTAMYYCARDWGLRPWFVYWGQGTLVTVSA VL: DIVMTQSHKFMSTSVGDRVSITCKASQDVSTAVAWYQQKPGQSPKLLIYWASTRHTGVPDRFTGSGSGTDYTLTISSVQAEDLALYYCQQHYTTPPTFGSGTKLEIK , which is 1.71e-05
